Recorded pIC50, one value per entry.
SYSTEM NAME: IL-23α/IL-12β and IL-23R (Homo sapiens, UniProt Q5VWK5)
Construct: ILB-H52W5 (IL-23α/IL-12β)
Sequence (Q5VWK5 24-353 limits assumed): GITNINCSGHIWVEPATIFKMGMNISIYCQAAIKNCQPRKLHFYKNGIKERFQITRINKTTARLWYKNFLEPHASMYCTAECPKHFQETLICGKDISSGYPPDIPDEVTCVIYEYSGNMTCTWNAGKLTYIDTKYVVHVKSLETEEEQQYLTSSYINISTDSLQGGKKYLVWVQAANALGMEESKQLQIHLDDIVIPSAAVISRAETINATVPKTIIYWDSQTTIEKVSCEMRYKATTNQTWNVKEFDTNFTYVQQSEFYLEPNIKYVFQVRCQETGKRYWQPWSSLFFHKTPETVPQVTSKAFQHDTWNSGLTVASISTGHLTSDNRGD
ASSAY PROCEDURE: IL-23α/IL-12β and IL-23R binding assay (TR-FRET/HTRF)
TEST PARAMETERS: inhibition of the binding of IL-23α/IL-12β to IL-23R, TR-FRET; both proteins 0.3 nM
Starred links: 1 amine or outer side, 2 acyl side, 3 side chain; linkers in the order of their positions; H or OH if unused. Positions of bridges follow the written chain, without caps; N, C: chain ends. Non-standard residues stand in square brackets, D forms with d. Residues, ends and D or L forms follow the SMILES beside them. Trp(7-Me) = Cc1cccc2c(C[C@H](N)C(=O)O)c[nH]c12; 2Nal = N[C@@H](Cc1ccc2ccccc2c1)C(=O)O; AEF = NCCOc1ccc(C[C@H](N)C(=O)O)cc1; 3Pal = N[C@@H](Cc1cccnc1)C(=O)O; Pen = CC(C)(S)[C@H](N)C(=O)O; Thp = NC1(C(=O)O)CCOCC1; Dap = NC[C@H](N)C(=O)O; CO = O=C([*:1])[*:2]; Sar = CNCC(=O)O
// scale note: pIC50 = -log10(conc_M); give the bare number

Reference set (4 entries):
CC(=O)NCCCC[C@@H]1NC(=O)[C@H](Cc2c[nH]c3c(C)cccc23)NC(=O)[C@H]([C@@H](C)O)NC(=O)[C@H](CC(N)=O)NC(=O)C(NC(C)=O)CCCC[C@@H](C(=O)N[C@@H](Cc2ccc(OCCN)cc2)C(=O)N[C@@H](Cc2ccc3ccccc3c2)C(=O)NC2(C(=O)N[C@@H](CCC(=O)O)C(=O)N[C@@H](CC(N)=O)C(=O)N[C@@H](Cc3cccnc3)C(=O)N(C)CC(N)=O)CCOCC2)NC1=O (single isomer, unassigned) [Compound 44-2]
9.87
CC(=O)N[C@H]1CNC(=O)NC[C@@H](C(=O)N[C@@H](Cc2ccc(OCCN)cc2)C(=O)N[C@@H](Cc2ccc3ccccc3c2)C(=O)NC2(C(=O)N[C@@H](CCC(=O)O)C(=O)N[C@@H](CC(N)=O)C(=O)N[C@@H](Cc3cccnc3)C(=O)N(C)CC(N)=O)CCOCC2)NC(=O)[C@H](CCC(N)=O)NC(=O)[C@H](Cc2c[nH]c3c(C)cccc23)NC(=O)[C@H]([C@@H](C)O)NC(=O)[C@H](Cc2c[nH]cn2)NC1=O [Compound 23] (Ac-[Dap]HT[Trp(7-Me)]Q[Dap][AEF][2Nal][Thp]EN[3Pal][Sar]-NH2; linker 1-6 via CO)
9.79
CC(=O)NCCCC[C@@H]1NC(=O)[C@H](Cc2c[nH]c3c(C)cccc23)NC(=O)[C@H]([C@@H](C)O)NC(=O)[C@H](CC(N)=O)NC(=O)[C@@H](NC(C)=O)C(C)(C)SSC(C)(C)[C@@H](C(=O)N[C@@H](Cc2ccc(OCCN)cc2)C(=O)N[C@@H](Cc2ccc3ccccc3c2)C(=O)NC2(C(=O)N[C@@H](CCC(=O)O)C(=O)N[C@@H](CC(N)=O)C(=O)N[C@@H](Cc3cccnc3)C(=O)N(C)CC(N)=O)CCS(=O)(=O)CC2)NC1=O
10.25
CC(=O)N[C@@H]1C(=O)N[C@@H](Cc2c[nH]cn2)C(=O)N[C@@H]([C@@H](C)O)C(=O)N[C@@H](Cc2c[nH]c3c(C)cccc23)C(=O)N[C@@H](CCC(N)=O)C(=O)N[C@H](C(=O)N[C@@H](Cc2ccc(OCCN)cc2)C(=O)N[C@@H](Cc2ccc3ccccc3c2)C(=O)NC2(C(=O)N[C@@H](CCC(=O)O)C(=O)N[C@@H](CC(N)=O)C(=O)N[C@@H](Cc3cccnc3)C(=O)N(C)CC(N)=O)CCOCC2)C(C)(C)SSC1(C)C [Compound 1] (Ac-[Pen]HT[Trp(7-Me)]Q[Pen][AEF][2Nal][Thp]EN[3Pal][Sar]-NH2; disulfide 1-6)
10.19

Reported pIC50 for CC(=O)NCCCC[C@@H]1NC(=O)[C@H](Cc2c[nH]c3c(C)cccc23)NC(=O)[C@H]([C@@H](C)O)NC(=O)[C@H](CC(N)=O)NC(=O)C(NC(C)=O)CCCC[C@@H](C(=O)N[C@@H](Cc2ccc(OCCN)cc2)C(=O)N[C@@H](Cc2ccc3ccccc3c2)C(=O)NC2(C(=O)N[C@@H](CCC(=O)O)C(=O)N[C@@H](CC(N)=O)C(=O)N[C@@H](Cc3cccnc3)C(=O)N(C)CC(N)=O)CCOCC2)NC1=O (single isomer, unassigned) [Compound 44-1] was 9.84

Field pIC50 (entry CC(=O)NCCCC[C@@H]1NC(=O)[C@H](Cc2c[nH]c3c(C)cccc23)NC(=O)[C@H]([C@@H](C)O)NC(=O)[C@H](Cc2c[nH]cn2)NC(=O)[C@@H](NC(C)=O)C(C)(C)SSC(C)(C)[C@@H](C(=O)N[C@@H](Cc2ccc(OCCN)cc2)C(=O)N[C@@H](Cc2ccc3ccccc3c2)C(=O)NC2(C(=O)N[C@@H](CCC(=O)O)C(=O)N[C@@H](CC(N)=O)C(=O)N[C@@H](Cc3cccnc3)C(=O)N(C)CC(N)=O)CCOCC2)NC1=O [Compound 3] (Ac-[Pen]HT[Trp(7-Me)]K(Ac)[Pen][AEF][2Nal][Thp]EN[3Pal][Sar]-NH2; disulfide 1-6) ) reads 9.76

Data origin: patent EP4729529A1
